These data points were gathered from patent US20260166168A1.

Below: a set of entries, each annotated with reported kon.
Target: T1, recombinant extracellular domain protein of cynomolgus monkey DLL3 (cyno.DLL3-ECD-His) (cynomolgus monkey, UniProt A0A2K5WSR1 27-490)
T1 construct: extracellular domain; Commercial protein; not shown: His tag
T1 sequence: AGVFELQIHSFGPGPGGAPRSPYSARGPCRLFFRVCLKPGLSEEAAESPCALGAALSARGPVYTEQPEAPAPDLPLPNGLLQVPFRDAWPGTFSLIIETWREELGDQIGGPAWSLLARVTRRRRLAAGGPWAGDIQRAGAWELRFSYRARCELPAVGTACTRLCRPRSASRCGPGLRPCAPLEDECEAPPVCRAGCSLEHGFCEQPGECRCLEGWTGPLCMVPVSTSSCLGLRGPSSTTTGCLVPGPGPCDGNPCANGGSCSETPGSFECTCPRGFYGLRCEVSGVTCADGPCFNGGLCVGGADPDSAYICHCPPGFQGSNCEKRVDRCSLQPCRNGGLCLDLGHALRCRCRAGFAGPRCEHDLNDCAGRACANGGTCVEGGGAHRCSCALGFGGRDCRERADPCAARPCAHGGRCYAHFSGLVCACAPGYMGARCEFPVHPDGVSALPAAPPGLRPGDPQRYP
Assay: BLI (ForteBio), antibody on ProA sensor, cynoDLL3-ECD-His in solution
Lab book: enter the figure in M⁻¹ s⁻¹, no units written.

Worked cases, kon given:
Binder	kon (M⁻¹ s⁻¹)
10F2F3-Hz antibody (antibody, human IgG1, kappa, V domains shown, Humanized) VH: QVQLVESGAEVKKPGSSVKVSCKASGYAFSSHWVNWVRQAPGQGLEWMGQIYPGNGDTNYAQKFQGRVTLTADKSTSTAYMELSSLTSEDTAVYFCARWFAYWGQGTLVTVSS VL: DIQMTQSPSSLSASVGDRVTITCKSSQSLLDGGNQKNYLAWYQQKPGKPPKLLVYFASIRESGVPSRFSGSGSGTDFTLTISSLQPEDFATYYCQQHYNTPWTFGQGTKVEIKR	95100
55C11E4-Hz1 (antibody, human IgG1, kappa, V domains shown, Humanized IgG1/kappa) VH: EVQLVQSGAEVKKPGASVKVSCKASGYTFTDYYMNWVRQAPGQRLEWMGVINPYNGGTNYSQKFQGRVTLTVDKSASTAYMELSSLRSEDTAVYYCARDSNYVGLLDYWGQGTLVTVSS VL: DIVLTQSPATLSLSPGERATLSCRASQSISNNLHWYQQKPGQAPRLLIKYASQSISGIPARFSGSGSGPDFTLTISSLEPEDFAVYFCQQSNSWPYTFGQGTKVEIKR	202000
6F11C10-Hz1 antibody (antibody, human IgG1, kappa, V domains shown, Humanized IgG1/kappa) VH: EVQLVQSGAEVKKPGASVKVSCKASGFTFTDYYMHWVRQAPGQSLEWMGLVYPYNGDISYAQKFQGRVTLTVDTSISTAYMELSRLRSDDTAVYYCARQGNYVNNAIDYWGQGTLVTVSS VL: DIQMTQSPSSLSASVGDRVTITCKASQNVGNIIAWYQQKPGKSPKALIYLASYRYSGVPSRFSGSGSGTDFTLTISSLQPEDVATYFCQQYSDSPYTFGQGTKVEIKR	375000

Note kon for the binder shown: 59B10D3-Hz antibody (antibody, human IgG1, kappa, V domains shown, Humanized; also called 59B10D3-hz1) VH: EVQLVESGGGLVQPGGSLRLSCAASGFTFSDAWMDWVRQAPGKGLEWVAEIRNKANNHATYYVDSVKGRFTISRDDAKNSVYLQMNSLRAEDTAVYYCTRNNYGSTWTYYAMDYWGQGTLVTVSS VL: DIQMTQSPSSLSASVGDRVTITCRASQDISNYLNWYQQKPGKAVKLLIYYTSRLHSGVPSRFSGSGSGTDYTLTISSLQPEDFATYYCQQGYTLPLTFGQGTKVEIKR 100000
